biological target: OATP1B1 (SLCO1B1) (Homo sapiens); assay: Selectivity interaction (Panel of kinases, GPCRs, ion channels and transporters (enzymatic assay)) EUB0000223bCl SLCO1B1; conditions: not told
Sequence (Q9Y6L6 whole entry): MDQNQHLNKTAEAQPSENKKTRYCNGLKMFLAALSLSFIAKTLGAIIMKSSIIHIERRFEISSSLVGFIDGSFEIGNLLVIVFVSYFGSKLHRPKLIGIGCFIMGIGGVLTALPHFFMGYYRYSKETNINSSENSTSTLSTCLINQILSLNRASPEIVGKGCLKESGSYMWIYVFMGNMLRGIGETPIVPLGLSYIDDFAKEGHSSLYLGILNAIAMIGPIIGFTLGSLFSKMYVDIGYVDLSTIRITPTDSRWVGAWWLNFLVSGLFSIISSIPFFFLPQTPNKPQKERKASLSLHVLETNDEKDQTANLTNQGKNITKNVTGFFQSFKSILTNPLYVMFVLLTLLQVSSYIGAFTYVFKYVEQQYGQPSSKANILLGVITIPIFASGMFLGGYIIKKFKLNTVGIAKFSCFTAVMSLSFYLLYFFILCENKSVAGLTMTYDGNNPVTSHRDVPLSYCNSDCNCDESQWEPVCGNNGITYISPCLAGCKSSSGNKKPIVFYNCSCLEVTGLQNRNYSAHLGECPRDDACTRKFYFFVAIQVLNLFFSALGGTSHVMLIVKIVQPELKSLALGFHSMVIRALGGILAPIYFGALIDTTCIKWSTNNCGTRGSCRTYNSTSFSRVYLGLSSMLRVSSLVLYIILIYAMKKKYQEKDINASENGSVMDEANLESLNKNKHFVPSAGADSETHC
quantity.name: XC50 (µM)
Return type: number; implicit unit µM.

Query block: Which measured XC50 value corresponds to COc1cc(C(=O)N2CC[C@@H](O)[C@@H](N)C2)cc2nc(-c3cc4ccccc4n3CC3CC3)n(C)c12 ?
Result block: 7.94

====

biological target: Dual specificity protein kinase CLK4 (Homo sapiens, UniProt Q9HAZ1); test: Selectivity interaction (Enzymatic assay) EUB0001550a CLK4
Sequence (Q9HAZ1 whole entry): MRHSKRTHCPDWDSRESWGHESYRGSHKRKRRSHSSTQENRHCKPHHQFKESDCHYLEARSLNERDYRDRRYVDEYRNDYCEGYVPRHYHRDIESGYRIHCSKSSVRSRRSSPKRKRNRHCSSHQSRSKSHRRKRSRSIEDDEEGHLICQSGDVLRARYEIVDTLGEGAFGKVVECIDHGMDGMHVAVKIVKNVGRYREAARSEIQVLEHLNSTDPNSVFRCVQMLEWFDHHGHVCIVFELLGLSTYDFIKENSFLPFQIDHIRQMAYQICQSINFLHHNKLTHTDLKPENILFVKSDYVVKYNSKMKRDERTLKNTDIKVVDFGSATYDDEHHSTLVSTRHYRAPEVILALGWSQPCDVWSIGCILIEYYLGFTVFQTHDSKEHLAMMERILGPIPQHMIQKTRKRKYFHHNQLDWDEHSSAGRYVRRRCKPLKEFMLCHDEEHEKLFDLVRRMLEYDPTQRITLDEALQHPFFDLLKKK
quantity.name: pIC50
Value format note: pIC50 is -log10 of concentration (mol/L); just state the number.

Query block: Which measured pIC50 value corresponds to CN(C)CC#Cc1ccc2[nH]c3c(c2c1)-c1nc(N)ncc1CCC3 ?
Result block: 6.36
